conditions: basic group

{"COMPOUND": "CCCCNc1cc[nH+]c([O-])n1", "pKa": 4.69}
{"COMPOUND": "C1CNCCNCC[NH2+]C1", "pKa": 6.75}
{"COMPOUND": "C=CCN(C)CCCNC(=O)/C=N/[O-]", "pKa": 9.5}
{"COMPOUND": "C=C[C@H]1C[NH+]2CC[C@@H]1C[C@H]2[C@H](O)c1ccnc2ccc(OC)cc12", "pKa": 4.22}
{"COMPOUND": "CCCc1ccccc1N", "pKa": 4.36}
{"COMPOUND": "CN1CCCC1", "pKa": 10.6}
{"COMPOUND": "C#CCNCC#C", "pKa": 6.08}
{"COMPOUND": "c1ccc(-c2[nH]c3ccccc3[nH+]2)nc1", "pKa": -1.59}
{"COMPOUND": "Oc1ccc2ncncc2c1", "pKa": 3.12}
{"COMPOUND": "CN(C)/C=N/c1ccc(Br)cc1", "pKa": 8.1}
{"COMPOUND": "O=[N+]([O-])c1ccc(NCO)cc1", "pKa": -0.33}
{"COMPOUND": "c1ccc(C2CCCN2)cc1 (stereo not given)", "pKa": 9.6}
{"COMPOUND": "CCNC(C)C", "pKa": 11}
{"COMPOUND": "C1CCN(CCN2CCCCC2)CC1", "pKa": 9.43}
{"COMPOUND": "CN1c2ccccc2Nc2ccc(O)cc21", "pKa": 1}
{"COMPOUND": "Cc1ccc2c(c1)N1CCN2CC1", "pKa": 5.83}
{"COMPOUND": "C[Si](C)(C)OC1CN(C2CCCCC2)C1", "pKa": 9.02}
{"COMPOUND": "CC(C)/[NH+]=C/N(C)c1ccc(-c2c[nH]cn2)cc1", "pKa": 5.25}
{"COMPOUND": "COc1ccc2c(c1)C([P+](c1ccccc1)(c1ccccc1)c1ccccc1)c1ccccc1-2 (stereo not given)", "pKa": 9.09}
{"COMPOUND": "Cc1ccc(N)cc1-c1cc(N)ccc1C", "pKa": 5}
{"COMPOUND": "C=C[C@]1(O)C[NH+]2CC[C@H]1C[C@@H]2[C@@H](O)c1ccnc2ccc(OC)cc12", "pKa": 4.12}
{"COMPOUND": "C(=C\\C=N\\c1ccccc1)/C=C/Nc1ccccc1", "pKa": 8.52}
{"COMPOUND": "CN(C)Cc1ccc(C[NH+](C)C)c(O)c1O", "pKa": 6.39}
{"COMPOUND": "c1ccc(Nc2nccs2)cc1", "pKa": 4.33}
{"COMPOUND": "c1cnc2c(c1)ccc1c3c(cnc12)CCCC3", "pKa": 5.66}
{"COMPOUND": "CN1CCc2cccc(c2)CCc2ccc1cc2", "pKa": 6.76}
{"COMPOUND": "CC(C)NNC1CCN(C(C)C)CC1", "pKa": 9.55}
{"COMPOUND": "OCCN(CCO)c1ccccc1", "pKa": 4.11}
{"COMPOUND": "Cc1ccc(-c2cnc(-c3ccccc3)o2)cc1", "pKa": 0.91}
{"COMPOUND": "Nc1nc2cc3c(cc2[nH]1)CCCC3", "pKa": 7.69}

====

settings: basic group

{"MOLECULE": "Cn1c2c(s/c1=N\\N)CCCC2", "pKa": 8.2}
{"MOLECULE": "Cc1cc(-c2ccccc2)n[n+](C)c1NCCN1CCOCC1", "pKa": 5.12}
{"MOLECULE": "CCCn1ccnc1C", "pKa": 8.2}
{"MOLECULE": "C1CNCNC1", "pKa": 8.84}
{"MOLECULE": "Cc1ccc(NCC[NH2+]c2ccc(C)cc2)cc1", "pKa": 2.7}
{"MOLECULE": "C#CCN1CCN(C(=O)OCC)CC1", "pKa": 5.44}
{"MOLECULE": "Oc1cccc2scnc12", "pKa": 1.25}
{"MOLECULE": "[NH3+]Cc1ccncc1", "pKa": 4.05}
{"MOLECULE": "CNc1nnc(-c2ccccc2)s1", "pKa": 2.8}
{"MOLECULE": "C=C(C)[C@@H]1CN[C@H](C(=O)[O-])[C@@H]1CC(=O)[O-]", "pKa": 10.2}
{"MOLECULE": "Nc1nc(NCCO)nc(NCCO)n1", "pKa": 5.18}
{"MOLECULE": "COc1cc2c(cc1OC)NCC2", "pKa": 7.3}
{"MOLECULE": "O=C1CCC[C@H]2[C@H]3C[C@@H](CN12)[C@@H]1CCCCN1C3", "pKa": 9.4}
{"MOLECULE": "Oc1ccc(/N=N/c2ccncc2)cc1", "pKa": 4.65}
{"MOLECULE": "Nc1cc[nH+]c2c1ncn2CCOCP(=O)(O)O", "pKa": 0.05}
